We begin with a simple list: items and their reported EC50.
- measured.on: T1, soluble human TLR3 extracellular domain (human, UniProt O15455 24-703)
- T1 construct: also called hTLR3 extracellular domain; extracellular domain of human TLR3
- procedure.details: ELISA, TLR3 binding assay as in Example 20
Provide only the numeric value, understood in µg/mL.

Consider the reported EC50 for these binders:
binder	result.unit	experimental.value
human-adapted C1068 variant mAb HBV5 (Vh CDR3 M102I in the HV1/LV1 background) (antibody, V domains shown, Made in the HV1/LV1 background; not shown: human kappa light chain constant region) VH: QVQLVQSGAEVKKPGASVKVSCKASGYTFTTYWIHWVRQAPGQRLEWMGEINPNNGRINYNEKFKTRVTITRDTSASTAYMELSSLRSEDTAVYYCARVGVIITTFPYWGQGTLVTVSS VL: DIQMTQSPSSLSASVGDRVTITCRASGNIHNYLAWYQQKPGKAPKLLIYNAKTLADGVPSRFSGSGSGTDFTLTISSLQPEDFATYYCQHFWSTPFTFGQGTKLEIK	µg/mL	0.0747
human-adapted C1068 variant mAb HBV2 (Vh CDR2 Y60G in the HV1/LV1 background) (antibody, V domains shown, Made in the HV1/LV1 background; not shown: human kappa light chain constant region) VH: QVQLVQSGAEVKKPGASVKVSCKASGYTFTTYWIHWVRQAPGQRLEWMGEINPNNGRINGNEKFKTRVTITRDTSASTAYMELSSLRSEDTAVYYCARVGVMITTFPYWGQGTLVTVSS VL: DIQMTQSPSSLSASVGDRVTITCRASGNIHNYLAWYQQKPGKAPKLLIYNAKTLADGVPSRFSGSGSGTDFTLTISSLQPEDFATYYCQHFWSTPFTFGQGTKLEIK	µg/mL	0.0146
human-adapted C1068 variant mAb HBV1 (Vh CDR1 I34M in the HV1/LV1 background) (antibody, V domains shown, Made in the HV1/LV1 background and generated 'as described above'; not shown: human kappa light chain constant region) VH: QVQLVQSGAEVKKPGASVKVSCKASGYTFTTYWMHWVRQAPGQRLEWMGEINPNNGRINYNEKFKTRVTITRDTSASTAYMELSSLRSEDTAVYYCARVGVMITTFPYWGQGTLVTVSS VL: DIQMTQSPSSLSASVGDRVTITCRASGNIHNYLAWYQQKPGKAPKLLIYNAKTLADGVPSRFSGSGSGTDFTLTISSLQPEDFATYYCQHFWSTPFTFGQGTKLEIK	µg/mL	0.017

// next entry
Incoming: Which EC50 is listed for human-adapted C1068 variant mAb HBV3 (Vh CDR2 N61A in the HV1/LV1 background) (antibody, V domains shown, Made in the HV1/LV1 background; not shown: human kappa light chain constant region) VH: QVQLVQSGAEVKKPGASVKVSCKASGYTFTTYWIHWVRQAPGQRLEWMGEINPNNGRINYAEKFKTRVTITRDTSASTAYMELSSLRSEDTAVYYCARVGVMITTFPYWGQGTLVTVSS VL: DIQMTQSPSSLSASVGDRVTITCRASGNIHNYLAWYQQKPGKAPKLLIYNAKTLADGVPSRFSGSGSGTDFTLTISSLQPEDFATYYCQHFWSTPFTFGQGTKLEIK ?
Outgoing: 0.048

From: patent US20060115475A1
